Molecular target: Peptide 1: Biotin-…-[Tyr(PC)]-acid
Sequence (peptide, as listed by the source): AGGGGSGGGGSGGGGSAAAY
Assay: scFv ELISA
ASSAY_ENDPOINT: OD450 (OD450)
One number for each entry, in OD450.

Answered examples (2):
| BINDER | ASSAY_ENDPOINT | RESULT_VALUE |
| --- | --- | --- |
| PcOxP_DB01_B05 (scFv, V domains shown, scFv in periplasmic extract) VH: EVQLLESGGGLVQPGGSLRLSCAASGFTASDFYMEWVRQAPGKGLEWVAASRNKWNDYTTEYADSVKGRFTISRDNSKNTLYLQMNSLRAEDTAVYYCARDYYGSSYWYFDVWGQGTLVTVSS VL: DIQMTQSPSSLSASVGDRVTITCTASESLYSSKHKVHYLAWYQQKPGKAPKLLIYGASSLQIGVPSRFSGSGSGTDFTLTISSLQPEDFATYYCAQFYSYPLTFGGGTKVEIK | OD450 | 0.23 |
| PcOxP_DB01_E07 (scFv, V domains shown, scFv in periplasmic extract) VH: EVQLLESGGGLVQPGGSLRLSCAASGFTFSSYYMEWVRQAPGKGLEWVAASRNKANDYTTEYADSVKGRFTISRDNSKNTLYLQMNSLRAEDTAVYYCARDYYGSSYWYFDVWGQGTLVTVSS VL: DIVMTQSPDSLAVSLGERATINCTASESLYSSKHKVDYLAWYQQKPGQPPKLLIYGASNRYIGVPDRFSGSGSGTDFTLTISSLQAEDVAVYYCAQFYSYPLTFGGGTKVEIK | OD450 | 0.87 |

Consider the binder shown here: PcOxP_DB03_G06 (scFv, V domains shown, scFv in periplasmic extract) VH: EVQLLESGGGLVQPGGSLRLSCAASGFTFSDFYMEWVRQAPGKGLEWVAASRNKANDYTTEYADSVKGRFTISRDNSKNTLYLQMNSLRAEDTAVYYCARDYYGSSYWYFDVWGQGTLVTVSS VL: DIQMTQSPSSLSASVGDRVTITCTASESLYSSKHKVHYLAWYQQKPGKAPKLLIYGASNRYIGVPSRFSGSGSGTDFTLTISSLQPEDFATYYCAQFYEYPLTFGGGTKVEIK What is its recorded OD450? 2.48
